# TARGET OR TEST SYSTEM: human CD38 (Homo sapiens, UniProt P28907)
# Sequence (P28907 whole entry): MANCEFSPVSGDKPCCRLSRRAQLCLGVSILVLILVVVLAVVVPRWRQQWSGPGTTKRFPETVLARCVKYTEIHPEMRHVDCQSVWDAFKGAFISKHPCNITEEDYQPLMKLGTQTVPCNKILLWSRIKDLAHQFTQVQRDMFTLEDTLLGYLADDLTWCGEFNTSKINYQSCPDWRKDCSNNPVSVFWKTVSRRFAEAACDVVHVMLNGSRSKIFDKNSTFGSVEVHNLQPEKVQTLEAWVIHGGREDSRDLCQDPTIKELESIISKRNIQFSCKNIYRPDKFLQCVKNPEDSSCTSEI
# ASSAY PROTOCOL: human recombinant CD38 enzyme assay (hydrolysis of NAD+)
# Assay type: biochemical
# ASSAY CONTEXT: human recombinant CD38, 0.4 nM enzyme, 62.5 μM NAD+; read-out: hCD38 BioChem IC50
# Protocol: Compounds described herein were assayed for their ability to inhibit the hydrolysis of NAD+ by the protein CD38. […] Dose responses were measured using an assay to detect the hydrolysis of NAD+. […] Subsequent detection of remaining NAD+ was determined by first converting NAD+ to NADH using alcohol dehydrogenase, then using the resulting NADH to reduce resazurine to the fluorescent product resorufin. […] The plates were read for fluorescence (Excitation/Emission=540 nm/590 nm) using an EnVision plate reader. […]
READOUT LABEL: IC50 (nM)
Give bare numbers, in nM.

O=C(NC1CCC(F)(F)CC1)c1cc(C2CCOCC2)nc(-n2ccnc2)n1 111
O=C(Nc1ccc(C(F)(F)F)nc1)c1cccc(-c2cncs2)n1 1440
O=C(Nc1ccc(C(F)(F)F)nc1)c1ccc(F)c(-n2ccnc2)n1 10
CO[C@H]1CC[C@H](NC(=O)c2cncc(-c3cncn3C)n2)CC1 38
NC(=O)c1cncn1-c1cccc(C(=O)Nc2ccc(C(F)(F)F)nc2)n1 91

For every item below, please supply its IC50.
1. Cn1cncc1-c1nc(C(=O)N[C@H]2CC[C@H](OC(F)F)CC2)cc(C2CCOCC2)n1
2. CC(C)(O)c1ccc(NC(=O)c2ccnc(-n3ccnc3)n2)cn1
3. O=C(Nc1ccc(C(F)F)nc1)c1nc(C2CC2)cc(-n2ccnc2)n1

Response:
[4.1, 10.7, 4]

Prompt: IC50 for CO[C@H]1CC[C@H](NC(=O)c2nc(C3CC3)cc(-n3ccnc3)n2)CC1 ?
Response: 123

====

# TARGET OR TEST SYSTEM: CYP3A4 (Homo sapiens)
# Construct: from tissue; host or cells: human liver microsomes (pooled in the time-dependent assay)
# Sequence (P08684 whole entry): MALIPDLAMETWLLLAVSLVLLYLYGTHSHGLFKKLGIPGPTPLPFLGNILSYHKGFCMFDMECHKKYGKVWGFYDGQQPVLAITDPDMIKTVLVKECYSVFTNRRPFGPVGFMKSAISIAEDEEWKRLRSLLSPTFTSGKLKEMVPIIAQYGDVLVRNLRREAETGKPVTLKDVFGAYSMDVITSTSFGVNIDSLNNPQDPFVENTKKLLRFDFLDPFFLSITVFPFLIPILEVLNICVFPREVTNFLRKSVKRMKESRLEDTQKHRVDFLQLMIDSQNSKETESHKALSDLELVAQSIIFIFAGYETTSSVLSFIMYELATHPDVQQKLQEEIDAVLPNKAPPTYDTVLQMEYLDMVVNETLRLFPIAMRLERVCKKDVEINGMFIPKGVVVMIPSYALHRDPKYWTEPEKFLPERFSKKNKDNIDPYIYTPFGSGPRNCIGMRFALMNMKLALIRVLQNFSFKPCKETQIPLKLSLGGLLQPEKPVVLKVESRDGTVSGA
# ASSAY PROTOCOL: direct inhibition of CYP450 in human liver microsomes (midazolam and testosterone probes)
# Assay type: in vitro ADME
# ASSAY CONTEXT: 3 uM, testosterone probe, read-out: CYP3A4-T T0 % activity
# Procedure: Direct inhibition: […] A Perspective of the Pharmaceutical Research and Manufacturers of America”, Drug Metabolism and Disposition, 37 (7): 1355, 2009). For 3A4, the % activity was measured using both midazolam and testosterone as probes. Each compound at 3, 10, and 50 μM was incubated with HLM, NADPH and CYP isoenzyme specific probe substrates at 37° C. Inhibition of the probe substrate metabolism was quantified using LC/MS/MS. […]
READOUT LABEL: activity at 3 µM (%)
Numbers only, in %.

For every item below, please supply its activity at 3 µM.
1. CO[C@H]1CC[C@H](NC(=O)c2cc(C3(C)COC3)nc(-c3cncn3C)n2)CC1
2. CC(C)(O)c1ccc(NC(=O)c2nccc(-n3ccnc3)n2)cn1
3. [2H]c1nc([2H])n(-c2nc(C)cc(C(=O)N[C@H]3CC[C@H](OCCOC)CC3)n2)c1[2H] [Comparator Compound A, reference compound]
4. Cn1cncc1-c1ccnc(C(=O)Nc2ccc(C(C)(C)O)nc2)n1
5. CO[C@H]1CC[C@H](NC(=O)c2cc(C3CCC(F)(F)CC3)nc(-c3cncn3C)n2)CC1
6. Cn1cncc1-c1ccnc(C(=O)N[C@H]2CC[C@H](O)CC2)n1

Response:
1: 103; 2: 99; 3: 100; 4: 104; 5: 100; 6: 96

For every item below, please supply its activity at 3 µM.
1. CO[C@H]1CC[C@H](NC(=O)c2nccc(-n3ccnc3)n2)CC1
2. CO[C@H]1CC[C@H](NC(=O)c2cc(C3CCOCC3)nc(-c3cncn3C)n2)CC1

Response:
1. 96
2. 98
